Numbers sourced from patent US20100278834A1.

Target: H5 hemagglutinin (HA) of H5N1 influenza A virus, strain not stated (influenza A virus (H5N1), strain not stated)
Assay: cross-inhibition of binding to HA; competitor: FLD20.19

{"binder": "FLD20.19 (antibody, V domains shown) VH: QVQLVQSGAEVKKPGSSVTVSCKASGGTFSNYGISWVRQAPGQGLDWMGGIIPLFGTANYAQKFQGRVTITADESTSSSNMELSSLRSEDTAVYYCARDVHNYDFLTGYPLHLYGMDVWGQGTTVTVSS VL: DIQMTQSPSSLSASVGDRVTITCRASQSISTYLNWYQQKPGIPPKLLINVASSLQSGVPSRFSGSGSGTDFTLTISSLQPEDFASYYCQQTYSSPPTFGQGTKVEIK", "units": "%", "Inhibition of binding (%)": 100}
{"binder": "FLD127 (antibody, V domains shown) VH: QVQLVESGGGVVQPGRSLRLSCAASGFTFSSYGMHWVRQAPGKGLEWVAVIWYDGDNKYYGDSVKGRFTISRDNSKNTLFLQMNSLRAEDTAVYYCAKDTADHGDYVDLGFFDAWGQGTLVTVSS VL: DIQMTQSPSSVSASVGDRVTITCRASQDVSTWLAWYQLKPGKAPKLLIYAASSLQSGVPSRFSGSGSGTDFTLTVSSLQPEDFATYYCQQANSFPFTFGPGTKVDIK", "units": "%", "Inhibition of binding (%)": 100}
